Listed below: Kd values for each entry.
- Experimental system: β-wrapin AS10
- Assay overview: Isothermal titration calorimetry (ITC) of peptide binding to AS10
- Setup conditions: 30 °C, 30 µM AS10 in cell, peptide titrated from syringe, 20 mM sodium phosphate, pH 7.4, 50 mM NaCl, 1:1 binding model, read-out: Affinity to AS10 (dissociation constant KD)
Where no end group is shown, it is not given here.
Respond numerically; units are µM and should not be typed.

Substance	Reported
KDFIATLGKLSGLHGQDLFGIWSK [PAP(185−208)]	39

Now let's try a different one.
(Q) Value wanted: Kd (β-wrapin AS10) of entry TTC5(335−361): synthetic peptide of predicted β-hairpin-forming amyloidogenic segment 335−361 of TTC5 (AVILGKVVFSLTTEEKVPFTFGLVDSD)
(A) 4.7

Values from paper PMC10787225
